test system: Candida tropicalis; experiment: Antifungal activity against Candida tropicalis assessed as inhibition of fungal growth incubated for 24 hrs by CLSI based microbroth dilution method; type: functional
So basically: is MIC under 1000 µM? Then condition met. Not under? Then condition not met.

[
  {
    "Compound String": "O=C1c2cccc3c(N/N=C/C=C/c4ccc([N+](=O)[O-])o4)ccc(c23)C(=O)N1CCO",
    "Label": "condition met"
  },
  {
    "Compound String": "C=CCn1c(CCCC)nc(Cl)c1/C=N/Nc1ccc2c3c(cccc13)C(=O)N(CCO)C2=O",
    "Label": "condition met"
  }
]

A record lists `O=C1c2cccc3c(N/N=C/c4ccncc4)ccc(c23)C(=O)N1CCO` . Is its MIC below 1000 µM?
condition met

In plain terms, does `CCCN1C(=O)c2cccc3c(N/N=C(\C)Cn4c([N+](=O)[O-])cnc4C)ccc(c23)C1=O` come in under 1000 µM for MIC?
condition not met

====

test system: Candida albicans; test: Antifungal activity against Candida albicans ATCC 90023 assessed as inhibition of fungal growth incubated for 24 hrs by CLSI based microbroth dilution method; type: functional
Kindly apply the following: Y if MIC is less than 90 µM, N in every other case.

# count of solved cases: 4
[
  {
    "Compound String": "O=C1c2cccc3c(N/N=C/c4ccco4)ccc(c23)C(=O)N1CCO",
    "Label": "N"
  },
  {
    "Compound String": "CCCCN1C(=O)c2cccc3c(N/N=C(\\C)Cn4c([N+](=O)[O-])cnc4C)ccc(c23)C1=O",
    "Label": "N"
  },
  {
    "Compound String": "COc1ccc(N2C(=O)c3cccc4c(N/N=C(\\C)Cn5c([N+](=O)[O-])cnc5C)ccc(c34)C2=O)cc1",
    "Label": "N"
  },
  {
    "Compound String": "C#CCn1c(CCCC)nc(Cl)c1/C=N/Nc1ccc2c3c(cccc13)C(=O)N(CCO)C2=O",
    "Label": "Y"
  }
]

Consider the compound `CCN1C(=O)c2cccc3c(N/N=C(\C)Cn4c([N+](=O)[O-])cnc4C)ccc(c23)C1=O` . Is its MIC strictly less than 90 µM?
N

Criterion: MIC strictly below 90 µM. Is it met by `CCCCc1nc(Cl)c(/C=N/Nc2ccc3c4c(cccc24)C(=O)N(CCO)C3=O)n1CC1CC1` ?
Y

Lab log: compare recorded MIC with 90 µM; is it strictly lower for `CCCCCN1C(=O)c2cccc3c(N/N=C(\C)Cn4c([N+](=O)[O-])cnc4C)ccc(c23)C1=O` ?
N

====

tested on: Candida tropicalis; experiment: Antifungal activity against Candida tropicalis assessed as inhibition of fungal growth incubated for 24 hrs by CLSI based microbroth dilution method; type: functional
Quantity Measured: MIC (µM)
# output: bare number, implied unit µM

Form field: MIC recorded for `O=C1c2cccc3c(N/N=C/c4ccco4)ccc(c23)C(=O)N1CCO` with Candida tropicalis (enter value)
87

State its MIC on Candida tropicalis: `CN1C(=O)c2cccc3c(N/N=C/c4ccc([N+](=O)[O-])o4)ccc(c23)C1=O`
87

Item `C/C(Cn1c([N+](=O)[O-])cnc1C)=N\Nc1ccc2c3c(cccc13)C(=O)N(c1ccc(F)c(Cl)c1)C2=O` with Candida tropicalis - MIC?
246

Item: `O=C1c2cccc3c(N/N=C/c4ccc(CO)o4)ccc(c23)C(=O)N1CCO` Test system: Candida tropicalis Read-out: MIC Value: ?
5

Please state recorded MIC (tested on Candida tropicalis) of `CCCCc1nc(Cl)c(/C=N/Nc2ccc3c4c(cccc24)C(=O)N(CCO)C3=O)n1Cc1ccc(Cl)cc1Cl`
54

Value wanted: MIC (Candida tropicalis) of entry `CCCCc1nc(Cl)c(/C=N/Nc2ccc3c4c(cccc24)C(=O)N(CCO)C3=O)[nH]1`
73

Request: MIC, test system Candida tropicalis, entry `CCN1C(=O)c2cccc3c(N/N=C/c4ccc([N+](=O)[O-])o4)ccc(c23)C1=O`
84
